The measured values listed here are drawn from patent US11524968B2.

Molecular target: JAK1 (Homo sapiens (Human))
Sequence (P23458 whole entry): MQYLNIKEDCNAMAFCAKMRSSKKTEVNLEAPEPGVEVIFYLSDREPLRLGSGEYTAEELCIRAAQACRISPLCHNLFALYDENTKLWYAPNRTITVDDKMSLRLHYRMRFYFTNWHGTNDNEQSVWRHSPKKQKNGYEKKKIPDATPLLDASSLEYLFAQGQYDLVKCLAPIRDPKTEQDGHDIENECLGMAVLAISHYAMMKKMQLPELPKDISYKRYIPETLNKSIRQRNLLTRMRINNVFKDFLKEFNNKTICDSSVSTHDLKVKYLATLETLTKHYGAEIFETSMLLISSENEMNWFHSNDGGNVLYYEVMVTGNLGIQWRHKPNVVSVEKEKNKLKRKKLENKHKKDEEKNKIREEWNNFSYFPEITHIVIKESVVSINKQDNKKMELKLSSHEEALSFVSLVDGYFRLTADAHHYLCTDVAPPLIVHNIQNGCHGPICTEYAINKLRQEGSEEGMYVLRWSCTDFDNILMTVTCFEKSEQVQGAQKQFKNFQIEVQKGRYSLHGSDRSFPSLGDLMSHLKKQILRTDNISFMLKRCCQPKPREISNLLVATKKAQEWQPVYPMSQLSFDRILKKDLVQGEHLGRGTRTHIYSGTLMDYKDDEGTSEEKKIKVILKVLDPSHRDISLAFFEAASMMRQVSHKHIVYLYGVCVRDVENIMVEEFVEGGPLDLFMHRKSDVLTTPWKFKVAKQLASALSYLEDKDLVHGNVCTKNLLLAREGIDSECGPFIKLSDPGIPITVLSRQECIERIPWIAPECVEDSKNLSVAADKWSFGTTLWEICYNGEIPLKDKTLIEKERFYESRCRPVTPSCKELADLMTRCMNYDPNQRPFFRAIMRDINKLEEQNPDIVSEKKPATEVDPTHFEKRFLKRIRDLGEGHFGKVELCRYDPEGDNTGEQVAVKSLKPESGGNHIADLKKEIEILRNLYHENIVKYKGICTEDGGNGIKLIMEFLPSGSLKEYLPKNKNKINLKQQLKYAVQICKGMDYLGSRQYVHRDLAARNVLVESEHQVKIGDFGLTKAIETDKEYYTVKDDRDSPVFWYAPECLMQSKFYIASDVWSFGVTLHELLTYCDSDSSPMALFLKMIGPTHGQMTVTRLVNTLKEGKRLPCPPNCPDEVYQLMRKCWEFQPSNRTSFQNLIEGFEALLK
Assay: Analysis of JAK1 activity inhibition ability (ADP-Glo Kinase Assay)
Type: biochemical
Conditions: JAK1 enzyme, ADP-Glo luminescence, ATP 250 uM, IRS-itide substrate, 30° C. 40 minutes; read-out: IC50
pIC50: −log10 of the molar value.
Measurement type: pIC50

{"Structure smiles string": "N#CCC(=O)N1CCC(N2CC(CC#N)(N3CC=C(c4cc(NC(=O)C5CC5)nc5[nH]ccc45)CC3)C2)CC1", "Measurement type": "pIC50", "Result": "6.70 to 7.70"}
{"Structure smiles string": "O=C(Nc1cc(-c2ccc(OS(=O)(=O)C3CCCCC3)cc2)c2cc[nH]c2n1)C1CC1", "Measurement type": "pIC50", "Result": "< 6.70"}
{"Structure smiles string": "O=C(Nc1cc(-c2ccc(NS(=O)(=O)Cc3ccc(F)cc3)cc2)c2cc[nH]c2n1)C1CC1", "Measurement type": "pIC50", "Result": "> 7.70"}
